Assay: In vivo pharmacokinetic evaluation in SD rats, gavage
Conditions: rat, plasma, po, male SD rats, 3 mg/kg
QUANTITY: AUC(0-t) (nM·h)

[A] C=CC(=O)N1CCC[C@H](c2cccc(NCc3ccc(Nc4ncc(C(F)(F)F)c(Nc5ccccc5C(=O)NOC)n4)cc3)c2)C1
[B] C=CC(=O)N1CCC[C@@H](c2cccc(NCc3ccc(Nc4ncc(C(F)(F)F)c(Nc5ccccc5C(=O)NOC)n4)cc3)c2)C1
## Task Consider A and B . Which of these has its AUC(0-t) at a higher number? Let me know the label of the one you choose.
## Result A

---

Assay: In vivo pharmacokinetic evaluation in SD rats, gavage
Conditions: rat, plasma, po, male SD rats, 5 mg/kg
QUANTITY: Cmax (nM)

CNC(=O)c1ccc(Nc2ncc(C(F)(F)F)c(NCc3nccnc3N(C)S(C)(=O)=O)n2)cc1 [Defactinib, reference compound] ... 99.5
C=CC(=O)N1CCC[C@@H](c2cccc(NCc3ccc(Nc4ncc(C(F)(F)F)c(Nc5ccccc5C(=O)NC)n4)cc3)c2)C1 [Compound 35] ... 130

Values compiled from patent US20250127800A1.
